conditions: 308.15 K; 101 kPa; Liquid; Sing-around technique in a fixed-path interferometer
Let's look at some molecules and their measured speed of sound.

# Molecule, speed of sound / m/s
rows = [
    ("COCCO", 1321),
    ("COCCOCCOCCO [2-[2-(2-methoxyethoxy)ethoxy]ethanol]", 1408),
    ("CCCCn1cc[n+](C)c1.F[B-](F)(F)F [1-butyl-3-methylimidazolium tetrafluoroborate]", 1542),
    ("COCCOCCO", 1382),
]

---

conditions: 303.15 K; 101 kPa; Liquid; Vibrating tube method

# Compound, Unit info, mass density
rows = [
    ("COCCOCCO [2-(2-methoxyethoxy)ethanol]", "kg/m3", 1011.36),
    ("COCCO [2-methoxyethan-1-ol]", "kg/m3", 955.825),
    ("CCCCn1cc[n+](C)c1.F[B-](F)(F)F [1-butyl-3-methylimidazolium tetrafluoroborate]", "kg/m3", 1195.82),
    ("COCCOCCOCCO [2-[2-(2-methoxyethoxy)ethoxy]ethanol]", "kg/m3", 1036.84),
]
